Settings: [M+H]+; instrument: DT; single field, calibrated with Agilent tune mix (Agilent)
Measure: collision cross section (N2) (Å²)

{"Compound": "CCCCCCCCCCCCC=CC[C@@H](O)[C@H](CO)NC(=O)CC=CCCCCCCCCCCCCCCCC [Cer(38:2)]", "collision cross section (N2) / Å²": 262.4}
{"Compound": "CCCCCCCCCCCCC=CC[C@@H](O)[C@H](CO)NC(=O)CCCCCCCCCCCCCCCCCC [Cer(37:1)]", "collision cross section (N2) / Å²": 263.4}
{"Compound": "CCCCC/C=C\\C/C=C\\CCCCCCCC(=O)OC[C@@H](O)COP(=O)([O-])OCC[N+](C)(C)C [LPC(18:2)]", "collision cross section (N2) / Å²": 226.8}
{"Compound": "CCCCCCCCCCCCC=CC[C@@H](O)[C@H](CO[C@@H]1O[C@H](CO)[C@@H](O)C(O)C1O)NC(=O)CC=CCCCCCCCCCCCCCC (stereo not given in full) [GlcCer(36:2)]", "collision cross section (N2) / Å²": 283.4}
{"Compound": "CCCCCCCCCCCCC=CC[C@@H](O)[C@H](COP(=O)([O-])OCC[N+](C)(C)C)NC(=O)CCCCCCCCCCCCCCCCC [SM(36:1)]", "collision cross section (N2) / Å²": 289.1}
{"Compound": "CCCCC/C=C\\C/C=C\\C/C=C\\C/C=C\\CCCCCC(=O)O[C@H](COC(=O)CCCCCCC/C=C\\C/C=C\\CCCCC)COP(=O)(O)OC[C@H](N)C(=O)O [PS(40:6)]", "collision cross section (N2) / Å²": 289.6}
{"Compound": "CCCCCCCCCCCCC=CC[C@@H](O)[C@H](COP(=O)([O-])OCC[N+](C)(C)C)NC(=O)CCCCCCCCCCCCC [SM(32:1)]", "collision cross section (N2) / Å²": 276.6}
{"Compound": "CCCCCCCCCCCCC=CC[C@@H](O)[C@H](COP(=O)([O-])OCC[N+](C)(C)C)NC(=O)CCCCCCCCCCCCCC [SM(33:1)]", "collision cross section (N2) / Å²": 279.2}
{"Compound": "CCCCCCCCCCCCCCCC(=O)N[C@@H](COP(=O)([O-])OCC[N+](C)(C)C)[C@H](O)CCCCCCCCCCCCCCC [SM(34:0)]", "collision cross section (N2) / Å²": 285}
{"Compound": "CCCCC/C=C\\C/C=C\\CCCCCCCCCCCC(=O)O[C@H](COC(=O)CCCCCCC/C=C\\CCCCCCCC)COP(=O)(O)OC[C@H](N)C(=O)O [PS(40:3)]", "collision cross section (N2) / Å²": 295.2}
{"Compound": "CCCCC/C=C\\C/C=C\\C/C=C\\C/C=C\\CCCCCC(=O)O[C@H](COC(=O)CCCCCCCCCCCCCC)COP(=O)([O-])OCC[N+](C)(C)C [PC(37:4)]", "collision cross section (N2) / Å²": 290.4}
{"Compound": "CCCCCCCCCCCCC=CC[C@@H](O)[C@H](CO)NC(=O)CCCCCCCCCCCCCCCCCCCCCCCC [Cer(43:1)]", "collision cross section (N2) / Å²": 282}
{"Compound": "CCCCCCCCCCCCCCCCCCCC(=O)O[C@H](COC(=O)CCCCCCCCCCC)COP(=O)([O-])OCC[N+](C)(C)C [PC(32:0)]", "collision cross section (N2) / Å²": 283.4}
{"Compound": "CCCCCCCCCCCCCC/C=C\\OC[C@H](COP(=O)(O)OCCN)OC(=O)CCCCCCCCCCCCCCCCC [PE(p34:0)]", "collision cross section (N2) / Å²": 274.6}
{"Compound": "CCCCC/C=C\\C/C=C\\CCCCCCCCCCCC(=O)O[C@H](COC(=O)CCCCCCCCCCC)COP(=O)(O)OC[C@@H](O)CO [PG(34:2)]", "collision cross section (N2) / Å²": 283.3}
{"Compound": "CCCCCCCCCC/C=C\\CCCCCCCCCC(=O)O[C@H](COC(=O)CCCCCCCCCCCC)COP(=O)(O)OCCN [PE(35:1)]", "collision cross section (N2) / Å²": 276.6}
{"Compound": "CCCCCCCCCCCCCCCCC(=O)OC[C@@H](O)COP(=O)(O)OCCN [LPE(17:0)]", "collision cross section (N2) / Å²": 217.1}
{"Compound": "CCCCCCCCCCCCCCCC(=O)OC[C@H](COP(=O)([O-])OCC[N+](C)(C)C)OC(=O)CCCCCCCCCCCCC [PC(30:0)]", "collision cross section (N2) / Å²": 276.8}
{"Compound": "CC/C=C\\C/C=C\\C/C=C\\C/C=C\\CCCCC(=O)OC[C@H](COP(=O)(O)O[C@H]1C(O)C(O)C(O)[C@@H](O)C1O)OC(=O)CCCCCCCCCCCCCCCCCC (stereo not given in full) [PI(37:4)]", "collision cross section (N2) / Å²": 298.9}
{"Compound": "CCCCCCCCCCCCC=CC[C@@H](O)[C@H](CO)NC(=O)CC=CCCCCCCCCCCCCCCCCCC [Cer(40:2)]", "collision cross section (N2) / Å²": 270.3}
{"Compound": "CCCCCCCCCCCCCCCCCCCC(=O)N[C@@H](CO)[C@H](O)CCCCCCCCCCCCCCC [Cer(38:0)]", "collision cross section (N2) / Å²": 267.9}
{"Compound": "CCCCCCCCCCCCCCCC(=O)OCC(O)COP(=O)([O-])OCC[N+](C)(C)C (stereo not given) [LPC(16:0)]", "collision cross section (N2) / Å²": 229.8}
{"Compound": "CCCCC/C=C\\C/C=C\\C/C=C\\C/C=C\\CCCCCC(=O)O[C@H](CO/C=C\\CCCCCCCCCCCCCC)COP(=O)(O)OCCN [PE(p38:4)]", "collision cross section (N2) / Å²": 281.5}
{"Compound": "CCCCCCCCCCCCCCCC/C=C\\OC[C@H](COP(=O)([O-])OCC[N+](C)(C)C)OC(=O)CCCCCCCCCCCCCCC [PC(p34:0)]", "collision cross section (N2) / Å²": 288.3}
{"Compound": "CCCCCCCCCCCCC=CC[C@@H](O)[C@H](CO[C@@H]1O[C@H](CO)[C@@H](O)C(O)C1O)NC(=O)CC=CCCCCCCCCCCCCCCCCCCCC (stereo not given in full) [GlcCer(42:2)]", "collision cross section (N2) / Å²": 300.9}
